Source listed as paper PMC7706699.

# Measurement Target: human CPSF30 (residues 62–244) Y151A mutant (human, UniProt O95639-2 62-244, Y151A)
# Assay Explanation: fluorescence polarisation
Ends that are not written are not given here. * marks the point of attachment. Fluorescein(5-Mal) = O=C1OC2(c3ccc(O)cc3Oc3cc(O)ccc32)c2ccc(N3C(=O)CC(*)C3=O)cc21
Experimental Endpoint: Kd (nM)

binder="C(Fluorescein(5-Mal))FEDKPWRKPGADLSDYFNYGFNEDTWKAYSEKQKRIRMGLE (domain or fragment, human, UniProt Q6UN15 159-200, looked up) [hFip1 (residues 159–200) S159C/C189S mutant, FAM-labeled]" experimental_endpoint=Kd measured=1.8
